Let's look at some binders and their measured EC50.
Target: human FGFR1c + KLB receptor complex on HEK293 iLite FGF21 reporter cells (human, UniProt P11362 22-822; Q86Z14 1-1044)
Sequence (P11362 22-822, chain 1 of 2): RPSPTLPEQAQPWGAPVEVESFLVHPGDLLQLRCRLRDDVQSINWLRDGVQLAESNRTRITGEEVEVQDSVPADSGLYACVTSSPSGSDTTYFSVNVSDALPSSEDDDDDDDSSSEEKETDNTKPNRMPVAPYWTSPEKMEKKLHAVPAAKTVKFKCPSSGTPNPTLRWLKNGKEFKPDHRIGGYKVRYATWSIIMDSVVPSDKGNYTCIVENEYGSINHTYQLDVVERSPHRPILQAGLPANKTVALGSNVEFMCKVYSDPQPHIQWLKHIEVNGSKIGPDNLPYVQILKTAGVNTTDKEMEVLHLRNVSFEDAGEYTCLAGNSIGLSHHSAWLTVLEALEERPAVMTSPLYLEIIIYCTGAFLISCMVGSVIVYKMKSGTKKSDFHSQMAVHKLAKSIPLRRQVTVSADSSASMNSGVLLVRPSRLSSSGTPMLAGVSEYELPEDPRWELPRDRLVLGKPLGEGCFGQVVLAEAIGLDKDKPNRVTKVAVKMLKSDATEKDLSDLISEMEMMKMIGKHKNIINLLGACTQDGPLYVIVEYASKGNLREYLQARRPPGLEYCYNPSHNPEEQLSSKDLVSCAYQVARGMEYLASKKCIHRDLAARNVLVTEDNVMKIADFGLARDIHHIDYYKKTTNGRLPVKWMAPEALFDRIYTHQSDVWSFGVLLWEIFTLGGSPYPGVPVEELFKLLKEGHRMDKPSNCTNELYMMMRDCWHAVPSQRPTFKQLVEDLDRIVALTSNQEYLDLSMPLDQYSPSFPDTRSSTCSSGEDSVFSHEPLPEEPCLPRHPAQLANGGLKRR
Sequence (Q86Z14 whole entry, chain 2 of 2): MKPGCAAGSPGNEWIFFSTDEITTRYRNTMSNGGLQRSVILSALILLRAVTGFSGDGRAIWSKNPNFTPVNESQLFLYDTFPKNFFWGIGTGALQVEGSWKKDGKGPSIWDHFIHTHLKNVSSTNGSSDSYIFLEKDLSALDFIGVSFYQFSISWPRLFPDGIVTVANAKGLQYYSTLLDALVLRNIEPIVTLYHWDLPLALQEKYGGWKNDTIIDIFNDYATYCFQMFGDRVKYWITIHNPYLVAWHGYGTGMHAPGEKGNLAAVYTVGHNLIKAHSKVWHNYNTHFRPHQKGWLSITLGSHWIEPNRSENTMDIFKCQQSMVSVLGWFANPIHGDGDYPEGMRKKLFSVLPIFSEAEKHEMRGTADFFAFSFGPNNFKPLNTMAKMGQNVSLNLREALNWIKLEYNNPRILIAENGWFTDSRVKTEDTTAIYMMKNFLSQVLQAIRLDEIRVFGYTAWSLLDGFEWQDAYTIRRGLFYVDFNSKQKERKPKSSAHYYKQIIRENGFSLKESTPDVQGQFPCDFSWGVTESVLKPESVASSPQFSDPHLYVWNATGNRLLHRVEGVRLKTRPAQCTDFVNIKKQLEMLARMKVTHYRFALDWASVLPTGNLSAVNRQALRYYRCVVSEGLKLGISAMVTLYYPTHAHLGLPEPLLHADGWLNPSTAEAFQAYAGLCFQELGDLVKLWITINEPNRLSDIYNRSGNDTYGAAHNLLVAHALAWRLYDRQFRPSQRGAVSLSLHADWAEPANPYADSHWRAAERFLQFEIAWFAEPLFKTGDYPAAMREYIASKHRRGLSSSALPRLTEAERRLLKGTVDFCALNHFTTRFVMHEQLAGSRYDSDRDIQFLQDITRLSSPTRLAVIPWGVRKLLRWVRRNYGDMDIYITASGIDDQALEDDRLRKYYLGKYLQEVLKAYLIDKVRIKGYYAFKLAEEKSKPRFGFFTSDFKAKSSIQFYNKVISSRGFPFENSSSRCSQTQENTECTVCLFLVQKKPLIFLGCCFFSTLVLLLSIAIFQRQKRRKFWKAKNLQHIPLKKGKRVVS
Assay Explanation: cell-based or functional assay
Give just the numeric value; nM need not be written.

INSERT INTO assay_data (binder, attribute_measured, numeric_result) VALUES
  ('Ab0424 (antibody, IgG4, V domains shown) VH: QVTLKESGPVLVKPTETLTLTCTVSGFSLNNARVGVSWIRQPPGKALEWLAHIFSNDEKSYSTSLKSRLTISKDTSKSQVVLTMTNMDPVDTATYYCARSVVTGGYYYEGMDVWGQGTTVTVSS VL: SYVLTQPPSVSVAPGQTARITCGGSNIGSESVHWYQQKPGQAPVLVVYSSSDRPSGIPERFSGSNSGNTATLTISRVEAGDEADYYCQVWHGASDHVVFGGGTKLTVLG', 'EC50', 0.07),
  ('Ab0356 (antibody, IgG4, V domains shown) VH: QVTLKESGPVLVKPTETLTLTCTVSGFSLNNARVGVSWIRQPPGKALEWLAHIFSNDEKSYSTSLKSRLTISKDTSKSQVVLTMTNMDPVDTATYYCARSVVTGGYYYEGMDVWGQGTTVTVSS VL: SYVLTQPPSVSVAPGQTARITCGGSNIGSESVHWYQQKPGQAPVLVVYEASDRPSGIPERFSGSNSGNTATLTISRVEAGDEADYYCQVWAGSSDHVVFGGGTKLTVLG', 'EC50', 5.35),
  ('Ab0315 (antibody, IgG4, V domains shown) VH: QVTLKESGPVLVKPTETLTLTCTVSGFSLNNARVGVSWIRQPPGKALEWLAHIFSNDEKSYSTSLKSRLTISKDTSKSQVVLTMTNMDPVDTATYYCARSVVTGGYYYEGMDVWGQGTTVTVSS VL: SYVLTQPPSVSVAPGQTARITCGGNNIGSESVHWYQQKPGQAPVLVVYYDSDRPSGIPERFSGSNSGNTATLTISRVEAGDEADYYCQVWTGESDHVVFGGGTKLTVLG', 'EC50', 0.37);

Asked: // query EC50 value for entry Ab0314 (antibody, IgG4, V domains shown, IgG4 PE) VH: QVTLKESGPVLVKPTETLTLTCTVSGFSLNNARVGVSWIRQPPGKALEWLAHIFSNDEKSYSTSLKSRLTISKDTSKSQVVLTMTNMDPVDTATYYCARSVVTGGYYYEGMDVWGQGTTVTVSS VL: SYVLTQPPSVSVAPGQTARITCGGSNIGSESVHWYQQKPGQAPVLVVYDDSDRPSGIPERFSGSNSGNTATLTISRVEAGDEADYYCQVWTGESDHVVFGGGTKLTVLG
Given back: 0.05
